# System: Plasmodium falciparum
# test: Resistance index, ratio of EC50 for chloroquine, mefloquine, pyrimethamine and atovaquone-resistant Plasmodium falciparum TM90-C2B to EC50 for chloroquine and pyrimethamine-resistant Plasmodium falciparum W2
# Type: functional
# Ratio EC50 annotations

{"chemicalStructure": "CC1(C)CCc2[nH]c3cccc(Cl)c3c(=O)c2C1", "relation": "=", "Ratio EC50": 1.61}
{"chemicalStructure": "O=c1c2c([nH]c3cc(-c4ccc(Oc5ccc(OC(F)(F)F)cc5)cc4)ccc13)CCCC2", "relation": "=", "Ratio EC50": 0.75}
{"chemicalStructure": "COc1cccc2[nH]c3c(c(=O)c12)CC(C)(C)CC3", "relation": "=", "Ratio EC50": 0.67}
{"chemicalStructure": "COc1cc2c(=O)c3c([nH]c2cc1Cl)CCCC3", "relation": "=", "Ratio EC50": 0.33}
{"chemicalStructure": "Cc1cccc2c(=O)c3c([nH]c12)CC(C)(C)CC3", "relation": "=", "Ratio EC50": 0.74}
{"chemicalStructure": "CC1(C)CCc2c([nH]c3cc(Cl)ccc3c2=O)C1", "relation": "=", "Ratio EC50": 0.6}
{"chemicalStructure": "CC1(C)CCc2[nH]c3cc(Cl)ccc3c(=O)c2C1", "relation": "=", "Ratio EC50": 3.45}
{"chemicalStructure": "O=c1c2c([nH]c3c(Cl)cccc13)CCCC2", "relation": ">", "Ratio EC50": 7.9}
